B1: HDV Ribozyme (parent)
chain: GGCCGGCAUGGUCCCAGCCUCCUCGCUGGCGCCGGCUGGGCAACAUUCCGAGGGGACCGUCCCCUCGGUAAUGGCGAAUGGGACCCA

# Variants of: B1
# ASSAY NOTES: self-cleavage, relative activity (ratio to wild type); higher = more cleavage; co-transcriptional
Each item that follows carries a reported self-cleavage.
Answer with the value's number alone.

// solved cases for self-cleavage follow
G17C C64A	0.314
G11A A42C	0.101
A45C C48A	0.779
C15U G34U	0.293

The record that follows has no self-cleavage shown yet.
Complete the entry with self-cleavage for A16C C58A
0.582
